Please go through the items and note down their TGI.
Tested on: MALME-3M melanoma
Assay: NCI tumour cell line growth inhibition, 48 h

COC(=S)OC1CC(n2cnc3c(=O)[nH]cnc32)OC1CO[Si](C)(C)C(C)(C)C (stereo not given)    > 100 µM
Cn1nc(N)nc1N=S(C)(C)=N    > 100 µM
CCn1ncc(Oc2c(Cl)cc(N)cc2Cl)c(Cl)c1=O    > 100 µM
CCOC(=O)c1c(-c2ccccc2)oc(=O)c(Cc2cccc3cccnc23)c1-c1ccccc1    > 10 µM

// moving on: another record for TGI
Query string: Recorded TGI for `CC(=O)Nc1ccc2c(C3=C(c4cn(C)c5ccccc45)C(=O)NC3=O)cn(C)c2c1` with MALME-3M melanoma, please?
Result string: > 25 µM
